methodDescription: Emulsion stability testing of nonionic emulsifiers, aromatic solvent series
Format: physicochemical
Design: key: C = creamy; CO = creamy oil; O = oil; GC = gritty cream; NS = no separation; OC = oily cream
studyConditions: 2,4-D ester 480 g/L in Exxsol D-110, 34 ppm water

| compound | 1 h separation, appearance |
| --- | --- |
| CCC=CCCCCCCCCOCCO (mixture of isomers) [A12-4] | C |
| C=CCCCCCCCCOCCOCCOCCOCCOCCO [A10-10] | CO |
| CCC=CCCCCCCCCOCCOCCOCCO (mixture of isomers) [A12-7] | C |
| C=CCCCCCCCCOCCOCCOCCOCCOCCOCCOCCOCCOCCOCCOCCOCCOCCOCCOCCO [A10-16] | C |
| CCC=CCCCCCCCCOCCOCCOCCOCCOCCO (mixture of isomers) [A12-10] | C |
| CCC=CCCCCCCCCOCCOCCOCCOCCOCCOCCOCCO (mixture of isomers) [A12-13] | C |
| CCC=CCCCCCCCCOCCOCCOCCOCCOCCOCCOCCOCCOCCOCCOCCOCCOCCOCCOCCO (mixture of isomers) [A12-16] | C |
| C=CCCCCCCCCOCCOCCOCCO [A10-7] | CO |
| C=CCCCCCCCCOCCOCCOCCOCCOCCOCCOCCO [A10-13] | C |
| C=CCCCCCCCCOCCO [A10-4] | CO |
